# Lookup of reported log10(TGI) keyed by entry
# System: UO-31 renal
# assay.method.text: NCI tumour cell line growth inhibition, 48 h
metric: log10(TGI) (log10 of the value in µM)

>>> value_reported("O=[N+]([O-])c1cccc(-c2ncc(-c3ccc(Cl)cc3Cl)[nH]2)c1")
1.18
>>> value_reported("N#Cc1ccc(N2Cc3cc(Cl)ccc3OC3=C2C(=O)N(Cc2ccccc2)C3=O)cc1")
0.42
>>> value_reported("CCCCCCN(CCCCCC)CC(O)c1cccc2ccc(Cl)cc12 (stereo not given)")
1.29
>>> value_reported("Cc1ccc(Nc2nnc3n2S(=O)(=O)c2cc(C)c(Cl)cc2S3)cc1")
1.91
>>> value_reported("O=C1/C(=C/c2ccccc2)CN(C(=O)OCC(Cl)(Cl)Cl)C/C1=C\\c1ccccc1")
1.08

====

# Tested on: SF-539 CNS
# assay.method.text: NCI tumour cell line growth inhibition, 48 h
Peptide text beside a SMILES is read from it. * marks the point of attachment. Boc = CC(C)(C)OC(=O)*
# Lookup of reported TGI keyed by entry
metric: TGI

>>> value_reported("COC1(OC)/C(=C(\\N)C=O)NC(C)(C)N1O")
"> 100 µM"
>>> value_reported("CSCCC(NC(=O)C(CC(C)C)NC(=O)CNC(=O)OC(C)(C)C)C(=O)N(C)C (stereo not drawn) (Boc-Gly-Leu-Met-NMe2; configuration not given here)")
"> 100 µM"
>>> value_reported("COc1cc(C(=O)/C=C/c2c(C(F)(F)F)nc3sccn23)cc(OC)c1OC")
"2.96 µM"
>>> value_reported("COc1cc(CC(=O)c2ccc3c(c2)OCO3)cc(OC)c1OC")
"> 100 µM"
>>> value_reported("COc1ncnc2c(-c3ccco3)cn(COCc3ccccc3)c12")
"> 50 µM"
>>> value_reported("CN(C)CCNc1nc2ccccc2c2c1C(=O)c1ccccc1-2")
"3.04 µM"

====

# Tested on: MDA-MB-231 breast
# assay.method.text: NCI tumour cell line growth inhibition, 48 h
# Lookup of reported TGI keyed by entry
metric: TGI

>>> value_reported("COCCCN1C(=O)C2c3[nH]c4ccccc4c3C3CCC(C(C)(C)C)CC3C2C1=O (configuration not stated)")
"56.3 µM"
>>> value_reported("COc1ccc(C[C@H]2COC(=O)[C@@H]2Cc2cc(OC)c(OC)c(OC)c2)cc1OC")
"> 100 µM"
>>> value_reported("O=C(O)c1ccc(Nc2cnc3ccc(C(F)(F)F)cc3n2)cc1")
"36.9 µM"
>>> value_reported("COc1ncnc2c(-c3ccco3)cn(COCc3ccccc3)c12")
"> 50 µM"
>>> value_reported("Cc1csc(Nc2nc(-c3cccc(Cl)c3)nc(C(Cl)(Cl)Cl)n2)n1")
"> 33.3 µM"
>>> value_reported("C=CC1(CCC(Br)C(C)(C)Cl)CO1 (configuration not stated)")
"> 10 µM"
>>> value_reported("CCOc1cccnc1/C=N/NC(N)=S")
"> 100 µM"

====

# Lookup of reported TGI keyed by entry
# System: UO-31 renal
# assay.method.text: NCI tumour cell line growth inhibition, 48 h
metric: TGI

>>> value_reported("CC(C)(C)c1ccc(S(=O)(=O)N[C@H]2CC[C@H]3[C@@H]4CCc5cc(O)ccc5[C@H]4CC[C@]23C)cc1")
"4.11 µM"
>>> value_reported("N#Cc1nnc2c3c(-c4ccc(Cl)cc4)c(C#N)c(=O)[nH]c3nn2c1N")
"20.7 µM"
>>> value_reported("COc1ccc(C=O)cc1Oc1ccc(C[C@H]2c3c(cc(OC)c4c3Oc3cc5c(cc3O4)CCN(C)C5=O)CCN2C)cc1")
"14.6 µM"
>>> value_reported("CCC1NCC(=O)c2c1[nH]c1ccccc21 (centres undefined)")
"> 100 µM"
>>> value_reported("COC(=O)C1(Cc2ccccc2)Cc2ccccc2C1=O (centres undefined)")
"> 100 µM"
>>> value_reported("COc1cc2c(c(OC)c1OC)-c1ccc(SC)c(=O)cc1[C@@H](NC(=O)c1ccc(C#N)cc1)CC2")
"> 100 µM"
>>> value_reported("COc1cc(O)c2c(c1)C(O)C(O)CC1OC1C(=O)/C=C/CC(C)OC2=O (centres undefined)")
"17.1 µM"
>>> value_reported("O=C1c2ccccc2C(=O)c2c1ccc1c3ccccc3n(Cc3ccccc3)c21")
"> 100 µM"
>>> value_reported("CN(C)CCNc1nc2ccccc2c2c1C(=O)c1ccccc1-2")
"3.17 µM"
>>> value_reported("CC(C)C[C@H](NC(=O)[C@@H](O)[C@H](N)Cc1ccccc1)C(=O)O")
"> 100 µM"
>>> value_reported("COc1ccccc1NC(=O)C(=O)C1C(=O)Nc2ccccc2S1=O (centres undefined)")
"> 100 µM"
>>> value_reported("c1ccc(COc2ncccc2C2SCCCS2)cc1")
"> 100 µM"
>>> value_reported("CCc1nc(N)nc(N)c1-c1ccc([N+](=O)[O-])c(Cl)c1")
"> 100 µM"
>>> value_reported("CN1C(=O)[C@@]2(C=CC3(CC2)OCCO3)c2ccccc21")
"> 50 µM"
>>> value_reported("Cc1ns/c(=N\\C(=S)N(C)C)n1C")
"> 100 µM"
>>> value_reported("COc1cc(OC)c(/C=C/S(=O)(=O)Cc2ccc(OC)c(NCC(=O)O)c2)c(OC)c1")
"> 100 µM"
>>> value_reported("CCCCCCCCCCCCCCCC(=O)OCC1OC(n2ccc(N)nc2=O)C(O)C1O (centres undefined)")
"> 44.7 µM"
>>> value_reported("CSc1nc2c(ncn2C2OCC(O)C(O)C2O)c(=O)[nH]1 (centres undefined)")
"> 100 µM"
>>> value_reported("C/C(=C/CC[C@](C)(OC1OC(CO)C(O)C(O)C1O)[C@H]1CC[C@]2(C)[C@@H]1CC[C@@H]1[C@@]3(C)CC[C@H](O)C(C)(C)[C@@H]3C[C@H](O)[C@]12C)CO (some centres undefined)")
"> 100 µM"
>>> value_reported("CCCCC(=C=C1CCCCC1O)C1CCCN1C(=O)OC(C)(C)C (centres undefined)")
"35.8 µM"
>>> value_reported("COC1(OC)/C(=C(\\N)C=O)NC(C)(C)N1O")
"> 100 µM"
>>> value_reported("Nc1ccc2c(c1)CN1C(=O)c3ccccc3C1=N2")
"> 125 µM"
>>> value_reported("CCNC(=O)Oc1ccc(/C(=C(\\C)c2ccc(Cl)cc2)c2ccc(OCCN3CCCCC3)cc2)cc1")
"5.45 µM"
>>> value_reported("BrCC[P+](c1ccccc1)(c1ccccc1)c1ccccc1")
"22.8 µM"
>>> value_reported("c1ccc(C/C(=N\\Nc2nc3ccccc3o2)c2ccccn2)cc1")
"4.55 µM"
>>> value_reported("CC(=O)OCC1OC(n2c3c(c(-c4ccco4)c(C#N)c2=S)CCCC3)C(OC(C)=O)C(OC(C)=O)C1OC(C)=O (centres undefined)")
"> 31.6 µM"
>>> value_reported("COC(=O)c1cc2c3c(c(C(C)=O)c(OC)c2[nH]1)NCC3")
"> 50 µM"
>>> value_reported("Cc1ccc(OCCCCCCNCCO)c(C)c1")
"26.4 µM"
>>> value_reported("CCOc1ccc(NC(=S)/N=C/C(C(=O)Nc2ccccc2C)=C(\\C)O)cc1")
"> 100 µM"
>>> value_reported("O=C(Nc1ccccc1)Nc1ccccc1CNc1nc(Nc2ccc(OCCN3CCCC3)cc2)ncc1Cl")
"10.3 µM"
>>> value_reported("O=c1c2cc(F)ccc2sc2c(NCCCN3CCCC3)nc3ccccc3c12")
"4.18 µM"
>>> value_reported("COc1cc([C@@H]2c3cc4c(cc3[C@@H](Nc3ccc(Cl)cc3C(=O)c3ccccc3Cl)[C@H]3COC(=O)[C@H]23)OCO4)cc(OC)c1OC")
"> 100 µM"
>>> value_reported("Cc1cccc(N2C(=O)/C(=C/c3ccc(N(CCC#N)CCC#N)cc3C)N=C2c2cc([N+](=O)[O-])ccc2Cl)c1")
"> 100 µM"
>>> value_reported("C/C=C\\C(CC(=O)O)CC(=O)NCCC1CN(S(=O)(=O)C(F)(F)F)c2ccccc21 (centres undefined)")
"> 100 µM"

Where do these numbers come from? They come from PubChem BioAssay (NCI).
